Hi there, I'd appreciate the recorded inhibition at 1 µM for every entry that follows.
- system: CK1δ (Homo sapiens (Human))
- Sequence (P48730 whole entry): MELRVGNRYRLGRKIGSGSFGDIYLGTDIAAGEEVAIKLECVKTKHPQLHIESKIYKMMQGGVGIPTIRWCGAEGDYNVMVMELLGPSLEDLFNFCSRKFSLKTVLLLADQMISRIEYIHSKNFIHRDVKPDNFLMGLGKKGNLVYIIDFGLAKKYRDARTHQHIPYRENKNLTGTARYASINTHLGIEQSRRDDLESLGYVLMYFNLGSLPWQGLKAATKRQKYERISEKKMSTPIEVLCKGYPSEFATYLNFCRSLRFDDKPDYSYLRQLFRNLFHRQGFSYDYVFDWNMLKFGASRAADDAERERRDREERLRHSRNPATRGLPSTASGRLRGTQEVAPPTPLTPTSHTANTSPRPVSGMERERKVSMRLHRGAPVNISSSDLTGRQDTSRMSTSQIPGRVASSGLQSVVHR
- run-description: LanthaScreen Eu kinase binding assay, CK1δ
Answers are plain numbers, in %.

molecule | units-label | inhibition at 1 µM
Cc1cccc(-c2nc(-c3ccc(S(C)(=O)=O)cc3)[nH]c2-c2ccncc2)c1 | % | 23

Dear reader, for each entry below, please note its inhibition at 1 µM.
1. Cc1cccc(-c2nc(-c3ccc(C#N)cc3)[nH]c2-c2ccncc2)c1
2. Fc1ccc(-c2nc(-c3ccc4ccccc4c3F)[nH]c2C2=CCOCC2)cc1
3. Cc1cccc(-c2nc[nH]c2-c2ccncc2)c1
4. Oc1ccc(-c2nc(-c3ccc(F)cc3)c(C3=CCOCC3)[nH]2)cc1
5. Cc1cccc(-c2nc(-c3ccc4ccccc4c3)[nH]c2-c2ccncc2)c1
6. Cc1cccc(-c2nc(-c3ccccc3Cl)[nH]c2C2=CCOCC2)c1
7. C[S+]([O-])c1ccc(-c2nc(-c3ccncc3)c(-c3ccc(F)cc3)o2)cc1 (stereo not drawn)

Response:
1: 11; 2: 14; 3: 4; 4: 14; 5: 5; 6: 23; 7: 34

The molecule identified as COC(=O)c1ccc(-c2nc(-c3cccc(C)c3)c(-c3ccncc3)[nH]2)cc1 registered its inhibition at 1 µM at 10

Provenance of the data: patent US10865384B2
